B1: SLC25A39 (parent)
chain: LTSDLYAPMVAGALARLGTVTVIS

- Variants of: B1
- MEASUREMENT_PROTOCOL: protein stability index of a GFP-peptide fusion (GPS, HEK-293T) (PSI 1-6); higher = more stable;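 also: lentivirally expressed fusions sorted by FACS into six bins by GFP to DsRed ratio, PSI derived from sequencing read proportions per bin multiplied by bin number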
- COND: c terminus: a fixed tail appended
Given measured protein stability index, output rule met if it is greater than or equal to 2 and rule not met if not.

Tell me whether protein stability index is at least 2 here: `T2C`
rule met

Tell me whether protein stability index is at least 2 here: `S24G`
rule met

Tell me whether protein stability index is at least 2 here: `Y6S`
rule not met

Tell me whether protein stability index is at least 2 here: `V22Y`
rule not met

Tell me whether protein stability index is at least 2 here: `A11F`
rule met

Tell me whether protein stability index is at least 2 here: `S3Y`
rule met

Tell me whether protein stability index is at least 2 here: `T21R`
rule met
